measured-on: HLA-DR2 molecules (Homo sapiens, UniProt P01903+P01911)
Construct: Soluble HLA-DR2 molecules were expressed in Drosophila S2 cells and purified as described; made in house; host or cells: Drosophila S2 cells
assay-comment: Competitive binding assay: inhibition of biotinylated MBP 85-99 binding to HLA-DR2 molecules
cond: read-out: IC50 (μM) vs. biotinylated: MBP 95-99
Entries and their IC50 values follow.

chemical-structure: C[C@H](N)C(=O)N[C@@H](CCCCN)C(=O)N[C@@H](CCC(=O)O)C(=O)N[C@@H](C)C(=O)N[C@@H](Cc1ccc(O)cc1)C(=O)N[C@@H](C)C(=O)N[C@@H](C)C(=O)N[C@@H](C)C(=O)N[C@@H](C)C(=O)N[C@@H](C)C(=O)N[C@@H](C)C(=O)N[C@@H](C)C(=O)N[C@@H](C)C(=O)N[C@@H](C)C(=O)N[C@@H](C)C(=O)O
measured-on: HLA-DR2 molecules (Homo sapiens, UniProt P01903+P01911)
result-value: > 1000 µM

Please find the next molecule below.
Query block: Find the recorded IC50 belonging to "C[C@H](N)C(=O)N[C@@H](CCC(=O)O)C(=O)N[C@@H](CCCCN)C(=O)N[C@@H](CCC(=O)O)C(=O)N[C@@H](Cc1ccc(O)cc1)C(=O)N[C@@H](C)C(=O)N[C@@H](C)C(=O)N[C@@H](C)C(=O)N[C@@H](C)C(=O)N[C@@H](C)C(=O)N[C@@H](C)C(=O)N[C@@H](C)C(=O)N[C@@H](C)C(=O)N[C@@H](C)C(=O)N[C@@H](C)C(=O)O" and report it.
Result block: > 1000 µM

Origin of measurements: patent US20030064915A1
